- system: Human recombinant Methionine Aminopeptidase 2 (MetAp2) (Homo sapiens)
- Sequence (P50579 2-478): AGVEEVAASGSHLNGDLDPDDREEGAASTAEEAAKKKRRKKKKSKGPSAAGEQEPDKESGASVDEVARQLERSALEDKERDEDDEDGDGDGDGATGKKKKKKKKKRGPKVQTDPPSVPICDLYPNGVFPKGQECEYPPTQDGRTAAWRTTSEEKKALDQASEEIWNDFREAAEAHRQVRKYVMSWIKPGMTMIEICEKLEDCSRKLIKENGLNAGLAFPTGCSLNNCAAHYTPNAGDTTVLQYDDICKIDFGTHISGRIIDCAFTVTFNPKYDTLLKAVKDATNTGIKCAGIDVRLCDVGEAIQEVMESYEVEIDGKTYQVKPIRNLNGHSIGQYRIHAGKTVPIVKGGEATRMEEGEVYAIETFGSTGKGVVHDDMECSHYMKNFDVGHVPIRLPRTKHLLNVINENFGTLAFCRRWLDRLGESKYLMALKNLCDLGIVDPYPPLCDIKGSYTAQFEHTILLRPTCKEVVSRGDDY
- assay.summary: fluorometric H-Met-AMC hydrolysis
Binarize IC50 at 20 µM; below is Y, at or above is N.

Field: example entries. Status: answers known.
> print(dat)
                                   compound                                    system  answer.label
1  CC(C)(C)[Si](Oc1ccc([N+](=O)[O-])c2cccnc12)(c1ccccc1)c1ccccc1 [compound 4]  Human recombinant Methionine Aminopeptidase 2 (MetAp2) (Homo sapiens)             Y
2  O=[N+]([O-])c1ccc(OS(=O)(=O)C(F)(F)F)c2ncccc12 [compound 6]  Human recombinant Methionine Aminopeptidase 2 (MetAp2) (Homo sapiens)             N
3  C[Si](C)(C)CCOCOc1ccc([N+](=O)[O-])c2cccnc12 [compound 7]  Human recombinant Methionine Aminopeptidase 2 (MetAp2) (Homo sapiens)             N
4  CC(C)(C)[Si](C)(C)Oc1ccc([N+](=O)[O-])c2cccnc12 [compound 2]  Human recombinant Methionine Aminopeptidase 2 (MetAp2) (Homo sapiens)             Y
5  CC(C)[Si](Oc1ccc([N+](=O)[O-])c2cccnc12)(C(C)C)C(C)C [compound 3]  Human recombinant Methionine Aminopeptidase 2 (MetAp2) (Homo sapiens)             Y

We next turn to a different compound, shown below.
Please check: IC50 for O=[N+]([O-])c1ccc(OCOCc2ccccc2)c2ncccc12 [compound 9] , strictly under 20 µM or not? N

* * *

- System: 4T1
- assay.summary: cells
- condition: Mus musculus, 4T1, 72 h, read-out: 4T1
# IC50 per record follows

Examples with their reported IC50 follow.
> print(dat)
                            chemical.string  endpoint   result
1  O=[N+]([O-])c1ccc(OS(=O)(=O)C(F)(F)F)c2ncccc12      IC50  4.13 µM
2  O=[N+]([O-])c1ccc(OCOCc2ccccc2)c2ncccc12      IC50  25.4 µM
3  CC(C)[Si](Oc1ccc([N+](=O)[O-])c2cccnc12)(C(C)C)C(C)C      IC50  2.76 µM
4   CS(=O)(=O)Oc1ccc([N+](=O)[O-])c2cccnc12      IC50  4.22 µM
5  CC(C)(C)[Si](C)(C)Oc1ccc([N+](=O)[O-])c2cccnc12      IC50  4.92 µM
6  C[Si](C)(C)CCOCOc1ccc([N+](=O)[O-])c2cccnc12      IC50  2.43 µM
7  CC(C)(C)[Si](Oc1ccc([N+](=O)[O-])c2cccnc12)(c1ccccc1)c1ccccc1      IC50   4.6 µM

Here is another compound to look at.
Endpoint output: IC50 of O=[N+]([O-])c1ccc(O)c2ncccc12 . Value? 4.67 µM

* * *

- System: MIA PaCa
- assay.summary: cells
- condition: Homo sapiens, MIA PaCa-2, 72 h, read-out: MIA PaCa
endpoint: pIC50
Please report pIC50 as the negative decimal logarithm of the molar concentration, giving only the number.

> print(dat)
                            chemical.string  numeric.result
1  CC(C)[Si](Oc1ccc([N+](=O)[O-])c2cccnc12)(C(C)C)C(C)C            5.01

What measured pIC50 is associated with CS(=O)(=O)Oc1ccc([N+](=O)[O-])c2cccnc12 on MIA PaCa? 4.86

What measured pIC50 is associated with CC(C)(C)[Si](Oc1ccc([N+](=O)[O-])c2cccnc12)(c1ccccc1)c1ccccc1 on MIA PaCa? 4.98

Hey, just so you know, these numbers are from paper doi:10.1101/2025.10.20.683482v1.
